All values here come from patent US20230117470A1.

assayed target: human TLR9 (Homo sapiens, UniProt Q9NR96)
assay name: TLR9 inhibition reporter assay (HEK-Blue cells, SEAP reporter, ODN2006 stimulation)
details: HEK-Blue cells overexpressing human TLR9, SEAP reporter, ODN2006 5 nM
measured parameter: pIC50
By convention, pIC50 is the negative base-10 log of a molar concentration.

// below: answered molecules
Checklist item: pIC50 tested on human TLR9 (Homo sapiens, UniProt Q9NR96), entry `Cc1cc(-c2[nH]nc(-c3ccc(C4CCN(CC(C)(C)C)CC4)cc3)c2C(C)C)cn2ncnc12` , value?
4.35

Checklist item: pIC50 tested on human TLR9 (Homo sapiens, UniProt Q9NR96), entry `Cc1cc(-c2[nH]nc(C(N)=O)c2C(C)C)cn2ncnc12` , value?
6.67

More entries:
Checklist item: pIC50 tested on human TLR9 (Homo sapiens, UniProt Q9NR96), entry `Cc1cc(-c2[nH]nc(-c3ccc(C4CCN(C(C)C)CC4)nc3)c2C(C)C)cn2ncnc12` , value?
4.34

Checklist item: pIC50 tested on human TLR9 (Homo sapiens, UniProt Q9NR96), entry `Cc1cc(-c2[nH]nc(-c3ccc(C4CCN(CC(C)(C)C)CC4)cn3)c2C(C)C)cn2ncnc12` , value?
4.38

* * *

assayed target: human TLR9 (Homo sapiens, UniProt Q9NR96)
Construct: host or cells: HEK-Blue cells
Sequence (Q9NR96 26-1032): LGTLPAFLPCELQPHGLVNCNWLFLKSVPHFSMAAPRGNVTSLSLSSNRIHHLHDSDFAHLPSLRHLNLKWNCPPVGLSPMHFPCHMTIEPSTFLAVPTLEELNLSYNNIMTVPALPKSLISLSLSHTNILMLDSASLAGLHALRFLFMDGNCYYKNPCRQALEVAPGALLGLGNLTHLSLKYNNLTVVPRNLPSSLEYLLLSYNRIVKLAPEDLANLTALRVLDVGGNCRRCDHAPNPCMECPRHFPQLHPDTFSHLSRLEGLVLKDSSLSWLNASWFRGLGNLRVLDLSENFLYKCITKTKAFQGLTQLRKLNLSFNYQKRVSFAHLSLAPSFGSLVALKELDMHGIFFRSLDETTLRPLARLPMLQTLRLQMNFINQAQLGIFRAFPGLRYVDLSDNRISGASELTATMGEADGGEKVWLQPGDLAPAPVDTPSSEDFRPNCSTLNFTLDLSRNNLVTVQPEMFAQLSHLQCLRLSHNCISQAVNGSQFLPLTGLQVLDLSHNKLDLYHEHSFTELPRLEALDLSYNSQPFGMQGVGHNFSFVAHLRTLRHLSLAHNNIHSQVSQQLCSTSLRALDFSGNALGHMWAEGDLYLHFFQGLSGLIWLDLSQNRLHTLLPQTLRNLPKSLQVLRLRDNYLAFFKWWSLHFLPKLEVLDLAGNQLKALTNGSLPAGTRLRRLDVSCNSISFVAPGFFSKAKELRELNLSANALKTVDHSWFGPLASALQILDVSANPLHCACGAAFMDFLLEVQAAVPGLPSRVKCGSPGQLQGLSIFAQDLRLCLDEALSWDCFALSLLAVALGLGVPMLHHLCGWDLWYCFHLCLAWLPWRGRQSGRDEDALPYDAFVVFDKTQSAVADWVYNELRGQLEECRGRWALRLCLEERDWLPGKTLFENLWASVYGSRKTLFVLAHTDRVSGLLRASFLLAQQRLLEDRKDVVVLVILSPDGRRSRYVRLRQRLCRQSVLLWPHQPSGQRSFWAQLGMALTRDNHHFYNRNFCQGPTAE
assay name: TLR9 inhibition reporter assay (HEK-Blue cells, SEAP reporter, ODN2006 stimulation)
Type: cell-based
details: HEK-Blue cells overexpressing human TLR9, SEAP reporter, ODN2006 5 nM
Measured IC50 by item
Write the number in µM without appending the unit.

// below: answered compounds
Checklist item: IC50 tested on human TLR9 (Homo sapiens, UniProt Q9NR96), entry `Cc1cc(-c2[nH]nc(C(=O)N3CC[C@H](N)C3)c2C(C)C)cn2ncnc12` , value?
5.07

Checklist item: IC50 tested on human TLR9 (Homo sapiens, UniProt Q9NR96), entry `Cc1cc(-c2[nH]nc(-c3nc4c(s3)CN(C3COC3)CC4)c2C(C)C)cn2ncnc12` , value?
23

Checklist item: IC50 tested on human TLR9 (Homo sapiens, UniProt Q9NR96), entry `CCNc1ccc2nc(-c3n[nH]c(-c4cc(C)c5ncnn5c4)c3C(C)C)sc2c1` , value?
34.9

Checklist item: IC50 tested on human TLR9 (Homo sapiens, UniProt Q9NR96), entry `Cc1cc(-c2[nH]nc(C(=O)NC3CCN(CC(=O)N(C)C)CC3)c2C(C)C)cn2ncnc12` , value?
9.58

Checklist item: IC50 tested on human TLR9 (Homo sapiens, UniProt Q9NR96), entry Cc1cc(-c2[nH]nc(C3CCC(N(C)C(=O)CN(C)C)CC3)c2C(C)C)cn2ncnc12 (single isomer, unassigned) [compound 297] , value?
8.91

More entries:
Checklist item: IC50 tested on human TLR9 (Homo sapiens, UniProt Q9NR96), entry Cc1cc(-c2[nH]nc(C3CCC(N4CCOCC4)CC3)c2C(C)C)cn2ncnc12 (single isomer, unassigned) [Example 290] , value?
22.1
